Data origin, for the record: patent US7943340B2

Biological target: ruLAP1 (Trichophyton rubrum)
Sequence (Q5QHG5 19-373): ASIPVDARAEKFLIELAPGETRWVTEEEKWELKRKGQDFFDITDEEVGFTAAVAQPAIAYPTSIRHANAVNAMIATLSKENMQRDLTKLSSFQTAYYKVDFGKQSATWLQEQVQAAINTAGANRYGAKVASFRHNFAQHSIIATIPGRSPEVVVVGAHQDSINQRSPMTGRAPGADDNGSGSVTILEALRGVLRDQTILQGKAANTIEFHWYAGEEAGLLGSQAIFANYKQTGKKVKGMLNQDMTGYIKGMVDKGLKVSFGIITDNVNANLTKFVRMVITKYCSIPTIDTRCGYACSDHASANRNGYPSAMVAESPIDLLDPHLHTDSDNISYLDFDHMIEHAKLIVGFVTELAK
Type: biochemical
Settings: cation salt 1 mM; Leu-MCA substrate
Each item that follows carries a reported ruLAP1 hydrolytic activity, percentage of control without any cation.
Your answer should be a plain number; it is taken to be in %.

As a guide, the following entries are already answered.
Looking for the measured ruLAP1 hydrolytic activity, percentage of control without any cation of "[Ca+2].[Cl-].[Cl-]" , can you help?
175.6

Looking for the measured ruLAP1 hydrolytic activity, percentage of control without any cation of "[Cl-].[Cl-].[Zn+2]" , can you help?
68.9

Looking for the measured ruLAP1 hydrolytic activity, percentage of control without any cation of "[Cl][Ni][Cl]" , can you help?
58.1

***
Looking for the measured ruLAP1 hydrolytic activity, percentage of control without any cation of "[Cl-].[Cl-].[Co+2]" , can you help?
202.1

Looking for the measured ruLAP1 hydrolytic activity, percentage of control without any cation of "[Cl-].[Cl-].[Mg+2]" , can you help?
132.6

Looking for the measured ruLAP1 hydrolytic activity, percentage of control without any cation of "[Cl][Mn][Cl]" , can you help?
105.2
